target_or_system: Receptor tyrosine-protein kinase erbB-2 (Homo sapiens)
assay_comment: reducers of endogenous Her2 protein level, primary screen, SKBR3 breast tumor cells, AlphaScreen, ATP viability (AID 461);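 note: lower value means less Her2 protein in the cells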
test_conditions: 18-24 h, at 10 µM, hits give low values

[
  {
    "compound": "O=C(CCn1c(=O)oc2ccccc21)NCCN1CCc2ccccc2C1",
    "Her2 level, %": 79
  },
  {
    "compound": "Clc1cccc(-c2nn3c(Cn4cnc5ccccc54)nnc3s2)c1",
    "Her2 level, %": 82.5
  },
  {
    "compound": "Cn1c(Cc2ccccc2)nnc1SCC(=O)c1ccc(Br)s1",
    "Her2 level, %": 83.5
  },
  {
    "compound": "CC(=O)c1cccc(NC(=O)NCc2ccccn2)c1",
    "Her2 level, %": 87
  },
  {
    "compound": "O=c1c2ccccc2nc(SCc2cn3ccsc3n2)n1-c1ccc(F)cc1",
    "Her2 level, %": 102
  },
  {
    "compound": "CC1CN(C2CCCCC2)c2nc3c(c(=O)[nH]c(=O)n3C)n2C1 (stereo unspecified)",
    "Her2 level, %": 95
  }
]

* * *

assay_comment: growth inhibitors of H69AR lung tumor, primary screen, human, duplicate replicates (AID 580);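 note: 100% = mean luminescence of untreated wells and 0% = no signal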
test_conditions: H69AR lung tumor cells viability, ATP luminescence, 72 h; at 10 µM; hits give low values
measured_attribute: viability (%)

[
  {
    "compound": "c1ccc2oc(SCc3cn4ccccc4n3)nc2c1",
    "endpoint_value": 95
  },
  {
    "compound": "COc1ccccc1OCc1ccc(C(=O)N2CCN(C(=O)c3ccco3)CC2)cc1",
    "endpoint_value": 99.2
  },
  {
    "compound": "CC(C)=CCSc1nnc(CCNC(=O)OC(C)(C)C)o1",
    "endpoint_value": 96.6
  },
  {
    "compound": "Cc1nn(C)c(C)c1NC(=O)CCSc1nc(-c2ccco2)cc(C(F)(F)F)n1",
    "endpoint_value": 98.8
  },
  {
    "compound": "O=C1NC(=O)C(CC(=O)N(c2ccccc2)C2(C(=O)NC3CCCC3)CCCCC2)N1 (stereo unspecified)",
    "endpoint_value": 97.2
  },
  {
    "compound": "CC(=O)c1cc(-c2ccccc2)n(CC(=O)N2CCC(N3CCCCC3)CC2)c1C",
    "endpoint_value": 82.7
  },
  {
    "compound": "COc1ccc(CCN2C(=O)CCC2(C)C(=O)NCc2cccnc2)cc1OC (stereo unspecified)",
    "endpoint_value": 89.2
  },
  {
    "compound": "COc1ccccc1CN(Cc1nc2ccccc2c(=O)[nH]1)C(=O)Nc1ccccc1",
    "endpoint_value": 86.6
  },
  {
    "compound": "CC(=O)C1=C(O)C(=O)N(C2CCCCC2)C1c1ccccc1 (stereo unspecified)",
    "endpoint_value": 97.3
  },
  {
    "compound": "CN(C(=O)c1ccccn1)c1nnc(-c2cccnc2)s1",
    "endpoint_value": 111
  },
  {
    "compound": "O=C(c1ccc(Br)o1)N1CCN(c2ccc3nnc(-c4ccccc4)n3n2)CC1",
    "endpoint_value": 75.8
  }
]

* * *

assay_comment: HUVEC growth inhibition – cell-based, human, primary screen (AID 575);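 note: 100% = median of untreated cell wells with 0.1% DMSO on each plate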
test_conditions: HUVEC proliferation, CellTiter-Glo luminescence, 72 h; at 10 µM; hits give low values

[
  {
    "compound": "O=C(COC(=O)C12CC3CC(CC(C3)C1)C2)NCc1ccco1",
    "viability (%)": 98.5
  },
  {
    "compound": "O=C(Nc1nnc(SCC(=O)N2CCCCC2)s1)C1CCCCC1",
    "viability (%)": 103
  },
  {
    "compound": "CC(C)COC(=O)C(C#N)c1nc2ccccc2nc1N1CCN(Cc2ccccc2)CC1 (configuration not stated)",
    "viability (%)": 64.7
  },
  {
    "compound": "CN(C)c1nc(Oc2ccc(N)cc2)nc(N(C)C)n1",
    "viability (%)": 86.2
  },
  {
    "compound": "CC(C)c1cc(C(=O)Nc2cccnc2)no1",
    "viability (%)": 105
  },
  {
    "compound": "CCOc1ccccc1N1CCN(S(=O)(=O)c2cccc3nsnc23)CC1",
    "viability (%)": 84.1
  },
  {
    "compound": "Clc1ccc(C2Nc3ccccc3-n3cccc32)cc1 (configuration not stated)",
    "viability (%)": 60.8
  },
  {
    "compound": "CCCC(C)C1C(C#N)=C(N)Oc2cc(C)oc(=O)c21 (configuration not stated)",
    "viability (%)": 98.4
  },
  {
    "compound": "CCCCc1ccc(NC(=O)COCC)cc1",
    "viability (%)": 92.1
  },
  {
    "compound": "Cc1ccccc1Nc1nc(N)nc(CSCc2c(C)noc2C)n1",
    "viability (%)": 101
  },
  {
    "compound": "O=c1[nH]c(=O)n([C@H]2C[C@H](O)[C@@H](CO)O2)cc1F",
    "viability (%)": 51.3
  },
  {
    "compound": "CC(C)CN(CC(C)C)C(=O)CS(=O)(=O)Cc1ccccc1",
    "viability (%)": 98.8
  }
]
